The measured values listed here are drawn from paper PMC9454393.

- targetOfAssay: AChE (Homo sapiens)
- Sequence (P22303 32-614): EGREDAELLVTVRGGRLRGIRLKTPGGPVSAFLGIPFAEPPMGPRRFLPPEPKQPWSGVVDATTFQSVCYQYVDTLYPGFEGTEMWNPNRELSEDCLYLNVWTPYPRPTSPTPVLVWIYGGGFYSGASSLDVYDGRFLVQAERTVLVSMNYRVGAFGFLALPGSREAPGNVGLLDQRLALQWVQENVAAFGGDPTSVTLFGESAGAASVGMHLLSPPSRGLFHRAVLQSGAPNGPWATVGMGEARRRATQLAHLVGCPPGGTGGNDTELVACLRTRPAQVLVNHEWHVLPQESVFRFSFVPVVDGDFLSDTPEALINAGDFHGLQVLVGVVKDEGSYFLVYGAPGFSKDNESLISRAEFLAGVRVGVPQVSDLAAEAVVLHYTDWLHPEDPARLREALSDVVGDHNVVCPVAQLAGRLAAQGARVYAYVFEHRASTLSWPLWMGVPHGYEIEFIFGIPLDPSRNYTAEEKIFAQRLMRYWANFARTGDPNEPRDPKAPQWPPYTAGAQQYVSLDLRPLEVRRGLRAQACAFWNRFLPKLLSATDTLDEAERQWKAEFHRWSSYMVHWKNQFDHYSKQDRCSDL
- measurementProtocol: biochemical
- assayContext: 50 µM compound; mean ± SD; NA = not active
readoutName: inhibition at 50 µM (%)

* CC1(C)CNc2c([N+](=O)[O-])c(C(C#N)C(N)=O)c(-c3ccc(Cl)cc3)n2C1 (stereo not shown) | 57
* COc1cccc(-c2c(C(C#N)C(N)=O)c([N+](=O)[O-])c3n2CCCN3)c1 (stereo not shown) | 33.5
* CSc1c([N+](=O)[O-])c(C(C#N)C(N)=O)c(-c2ccc(Cl)cc2)n1-c1ccc(C)cc1 (stereo not shown) | 72.5
* COC(=O)C(C(N)=O)c1c([N+](=O)[O-])c2n(c1-c1ccc(Cl)cc1)CC(C)(C)CN2 (stereo not shown) | 13.3

====

- targetOfAssay: AChE (Homo sapiens)
- measurementProtocol: biochemical
- assayContext: mean ± SD
pIC50: −log10 of the molar value.
Reported pIC50 values for a set of molecules
readoutName: pIC50

• COc1ccc(-n2c(SC)c([N+](=O)[O-])c(C(C#N)C(N)=O)c2-c2ccc(Cl)cc2)cc1 (stereo not shown) [Compound 4aa] = 4.26
• CC1(C)CNc2c([N+](=O)[O-])c(C(C#N)C(N)=O)c(-c3ccc(Cl)cc3)n2C1 (stereo not shown) [Compound 4e] = 4.44
• Cc1ccc(-c2c(C(C#N)C(N)=O)c([N+](=O)[O-])c3n2CC(C)(C)CN3)cc1 (stereo not shown) [Compound 4h] = 4.17
• CC1(C)CNc2c([N+](=O)[O-])c(C(C#N)C(N)=O)c(-c3ccccc3)n2C1 (stereo not shown) [Compound 4b] = 4.43
• CSc1c([N+](=O)[O-])c(C(C#N)C(N)=O)c(-c2ccc(C)cc2)n1-c1ccc(O)cc1 (stereo not shown) [Compound 4ae] = 4.48
• CSc1c([N+](=O)[O-])c(C(C#N)C(N)=O)c(-c2ccc(Cl)cc2)n1-c1ccc(O)cc1 (stereo not shown) [Compound 4ad] = 5.53
• CSc1c([N+](=O)[O-])c(C(C#N)C(N)=O)c(-c2ccc(Cl)cc2)n1-c1ccc(C)cc1 (stereo not shown) [Compound 4ah] = 5.32
